Quick reference: Kd of the listed items.
- test system: T1, CXCL121 (constitutively monomeric CXCL12 variant, L55C/I58C) (Felis catus (Cat) (Felis silvestris …, UniProt O62657 22-89, engineered disulfide between Cys55 and Cys58))
- T1 construct: also called CXCL12 locked monomer; LM
- T1 sequence (O62657 22-89 L76C/I79C limits assumed): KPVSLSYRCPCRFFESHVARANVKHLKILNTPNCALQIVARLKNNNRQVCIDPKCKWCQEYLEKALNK
- procedure summary: NMR 1H-15N HSQC titration of peptide into 15N-labelled chemokine, chemical shift perturbations fitted to a quadratic binding equation, 298 K
Non-standard residues stand in square brackets, D forms with d. sY = N[C@@H](Cc1ccc(OS(=O)(=O)O)cc1)C(=O)O
Give a bare numeral; the unit µM is implied.

Entry Ac-SDN[sY]TEE-NH2 (SMILES CC(=O)N[C@@H](CO)C(=O)N[C@@H](CC(=O)O)C(=O)N[C@@H](CC(N)=O)C(=O)N[C@@H](Cc1ccc(OS(=O)(=O)O)cc1)C(=O)N[C@H](C(=O)N[C@@H](CCC(=O)O)C(=O)N[C@@H](CCC(=O)O)C(N)=O)[C@@H](C)O, Synthetic CXCR4 heptapeptide, residues 9-15) [9SDNsYTEE15 (sTyr12 sulfopeptide)] ; Kd = 1800

Form field Kd, entry Ac-SGD[sY]DSM-NH2 (SMILES CSCC[C@H](NC(=O)[C@H](CO)NC(=O)[C@H](CC(=O)O)NC(=O)[C@H](Cc1ccc(OS(=O)(=O)O)cc1)NC(=O)[C@H](CC(=O)O)NC(=O)CNC(=O)[C@H](CO)NC(C)=O)C(N)=O, Synthetic CXCR4 heptapeptide, residues 18-24; also called sulfated Tyr21 peptide) [18SGDsYDSM24 (sTyr21 sulfopeptide)] : 1600

Lab note: Ac-SGDYDSM-NH2 (Synthetic CXCR4 heptapeptide, residues 18-24; also called unsulfated Tyr21 peptide) [18SGDYDSM24 (Tyr21 peptide)] gave Kd of 1500

Kd reported for this binder Ac-ISI[sY]TSD-NH2 (SMILES CC[C@H](C)[C@H](NC(C)=O)C(=O)N[C@@H](CO)C(=O)N[C@H](C(=O)N[C@@H](Cc1ccc(OS(=O)(=O)O)cc1)C(=O)N[C@H](C(=O)N[C@@H](CO)C(=O)N[C@@H](CC(=O)O)C(N)=O)[C@@H](C)O)[C@@H](C)CC, Synthetic CXCR4 heptapeptide, residues 4-10) [4ISIsYTSD10 (sTyr7 sulfopeptide)] : 6100
